Target: T1, ECF17_1458
T1 chain: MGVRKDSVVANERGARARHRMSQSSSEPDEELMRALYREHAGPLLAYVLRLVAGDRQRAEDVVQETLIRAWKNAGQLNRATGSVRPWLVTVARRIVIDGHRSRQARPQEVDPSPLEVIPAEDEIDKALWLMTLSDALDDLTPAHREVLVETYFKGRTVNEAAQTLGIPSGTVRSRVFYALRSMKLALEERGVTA
measure_name: fold repression
Numbers only.

binder	measure_name	observed_result
AS04_1609 (protein) MNRTTEQRNAEVMKTIGLLDQMPRVEVDHLFRVRLMQRIEAMEVKKTSWSALPGGAFNPRLAFMALLLMLNIASALMLFMHGTPQATGSSGAIAESLTEDYGGPALSYYDDQTTIDR	fold repression	3.13

Alright, here's another binder for you.
Query: Provide only the value of recorded fold repression for AS33_423 (protein) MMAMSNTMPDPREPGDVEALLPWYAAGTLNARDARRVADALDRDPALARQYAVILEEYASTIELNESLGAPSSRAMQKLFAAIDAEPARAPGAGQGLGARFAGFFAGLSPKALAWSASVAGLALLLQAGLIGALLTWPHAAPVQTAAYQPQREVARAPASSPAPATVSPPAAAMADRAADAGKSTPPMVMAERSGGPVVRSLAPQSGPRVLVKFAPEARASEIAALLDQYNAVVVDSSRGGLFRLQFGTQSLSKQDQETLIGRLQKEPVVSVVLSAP
Response: 8.41
